Assay: Pharmacokinetic measurements in rats (intravenous and intra-tracheal dosing)
Type: in vivo
Settings: male, CD, lung/plasma, iv; rat, i.v. dosing, 24 h; read-out: lung/plasma ratio at time(h)
Result Type: Kp at 24 h
Lab note: record the figure alone, no unit after it.

COC(=O)c1cc2c(cc1C)/C(=C(/Nc1ccc(C(=O)NOCCN3CCN(C)CC3)cc1)c1ccccc1)C(=O)N2 = 198

Query :: Requested field: Kp at 24 h. Item: `COC(=O)c1ccc2c(c1)NC(=O)/C2=C(\Nc1ccc(S(=O)(=O)NOCCN(C)C)cc1)c1ccccc1`
Result :: 103

Query :: Requested field: Kp at 24 h. Item: `COC(=O)c1cc2c(cc1C)/C(=C(/Nc1ccc(C(=O)NOCCN(C)C)c(C)c1)c1ccccc1)C(=O)N2`
Result :: 98

---

Experiment: PAMPA permeability assay
Format: in vitro ADME
Settings: PAMPA, pH 7, PAMPA, donor and acceptor compartments
Result Type: recovery at 5 hr, 10 μM (%)
Write the value in % as a bare number.

Guide cases for recovery at 5 hr, 10 μM, answers given:
CNC(=O)CN1CCN(CCON(C)C(=O)c2ccc(N/C(=C3\C(=O)Nc4cc(C(=O)OC)c(C)cc43)c3ccccc3)cc2)CC1 [Example 9] = 82.9
COC(=O)c1ccc2c(c1)NC(=O)/C2=C(\Nc1ccc(C(=O)NOCCN2CCN(C)CC2)c(F)c1)c1ccccc1 [Example 33] = 71.9
COC(=O)c1ccc2c(c1)NC(=O)/C2=C(\Nc1ccc(C(=O)N(C)OCCN2CCN(C)CC2)cc1)c1ccccc1 [Example 14] = 57.2
COC(=O)c1cc2c(cc1C)/C(=C(/Nc1ccc(C(=O)N(C)OCCN(C)CCO)cc1)c1ccccc1)C(=O)N2 [Example 56] = 69.7

Query :: Requested field: recovery at 5 hr, 10 μM. Item: COC(=O)c1ccc2c(c1)NC(=O)/C2=C(\Nc1ccc(C(=O)NOCCCN(C)C)cc1)c1ccccc1 [Example 19]
Result :: 54.6

---

Catalogue of compounds with associated Cell viability at 100 nM (%)
System: MRC5 cells
Test: Cell viability assay in MRC5 cells (MTT)
Conditions: 100 nM
Write the value in % as a bare number.

Guide cases for Cell viability at 100 nM (%), answers given:
COC(=O)c1ccc2c(c1)NC(=O)/C2=C(\Nc1ccc(S(=O)(=O)NOCCN(C)C)cc1)c1ccccc1 = 106.9
COCCN1CCN(CCONC(=O)c2ccc(N/C(=C3\C(=O)Nc4cc(C(=O)OC)ccc43)c3ccccc3)cc2)CC1 = 120.7
COC(=O)c1ccc2c(c1)NC(=O)/C2=C(\Nc1ccc(C(=O)NOCCN2CCC(O)CC2)cc1)c1ccccc1 = 103.8
COC(=O)c1cc2c(cc1C)/C(=C(/Nc1ccc(C(=O)N(C)OCCN3CCN[C@H](C)C3)cc1)c1ccccc1)C(=O)N2 = 118.6
COC(=O)c1ccc2c(c1)NC(=O)/C2=C(\Nc1ccc(C(=O)NOCCN2CCCCC2)cc1)c1ccccc1 = 93.4

Query :: Item: `COC(=O)c1ccc2c(c1)NC(=O)/C2=C(\Nc1ccc(C(=O)NOCCN2CC[C@H](N(C)C)C2)cc1)c1ccccc1` Test system: MRC5 cells Read-out: Cell viability at 100 nM (%) Value: ?
Result :: 89.3

Query :: Item: `COC(=O)c1ccc2c(c1)NC(=O)/C2=C(\Nc1ccc(C(=O)NOCCCN(C)C)cc1)c1ccccc1` Test system: MRC5 cells Read-out: Cell viability at 100 nM (%) Value: ?
Result :: 108.3

Query :: Item: `COC(=O)c1cc2c(cc1C)/C(=C(/Nc1ccc(S(=O)(=O)NOCCN3CCN(C)CC3)cc1)c1ccccc1)C(=O)N2` Test system: MRC5 cells Read-out: Cell viability at 100 nM (%) Value: ?
Result :: 124.5

Query :: Item: `COC(=O)c1cc2c(cc1C)/C(=C(/Nc1ccc(C(=O)NOCCN3CCN(C)CC3)c(F)c1)c1ccccc1)C(=O)N2` Test system: MRC5 cells Read-out: Cell viability at 100 nM (%) Value: ?
Result :: 93.5
